target: human P2Y12 receptor (Homo sapiens); experiment: P2Y12 receptor binding assay; conditions: CHO cells with recombinant expression of the human P2Y12 receptor; tritium-labeled 2-methyl-S-ADP; 2 hours at RT
Sequence (Q9H244 whole entry): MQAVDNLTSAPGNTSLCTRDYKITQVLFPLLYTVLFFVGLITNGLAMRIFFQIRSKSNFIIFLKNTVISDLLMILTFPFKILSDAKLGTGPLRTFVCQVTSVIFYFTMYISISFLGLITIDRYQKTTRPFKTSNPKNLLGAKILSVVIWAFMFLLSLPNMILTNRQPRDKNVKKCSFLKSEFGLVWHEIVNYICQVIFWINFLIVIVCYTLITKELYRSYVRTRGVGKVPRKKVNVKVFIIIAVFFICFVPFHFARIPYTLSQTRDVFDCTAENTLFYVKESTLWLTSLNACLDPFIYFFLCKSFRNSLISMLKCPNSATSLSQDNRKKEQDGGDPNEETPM
Readout Name: IC50 (nM)

Guide cases for IC50, answers given:
1. CCCCOC(=O)N1CCN(C(=O)[C@@H](CCCP(=O)(O)O)NC(=O)c2cc(N3CC[C@H](OC)C3)cc(-c3ccccc3)n2)CC1 = 30
2. CCOC(=O)N1CCN(C(=O)[C@H](Cc2ccc(P(=O)(O)O)cc2)NC(=O)c2cc(N3CC[C@H](OC)C3)cc(-c3ccccc3)n2)CC1 = 1
3. CCCCOC(=O)N1CCN(C(=O)[C@H](CP(=O)(OCOC(C)=O)OCOC(C)=O)NC(=O)c2cc(N3CC[C@H](OC)C3)cc(-c3ccccc3)n2)CC1 = 3
4. CCCCOC(=O)N1CCN(C(=O)[C@H](CP(=O)(O)O)NC(=O)c2cc(OCCOC)cc(-c3ccccc3)n2)CC1 = 2
5. CCCCOC(=O)N1CCN(C(=O)C(NC(=O)c2cc(N3CC[C@H](OC)C3)cc(-c3ccccc3)n2)P(=O)(O)O)CC1 (some centres unmarked) = 186

(a) CCCCOC(=O)N1CCN(C(=O)[C@H](CP(=O)(O)O)NC(=O)c2cc([C@H]3C[C@@H]3CO)cc(-c3ccccc3)n2)CC1
(b) CCCCOC(=O)N1CCN(C(=O)[C@H](CP(=O)(O)O)NC(=O)c2cc(-c3ccccc3)cc(-c3ccc(F)cc3)n2)CC1
Name the one with the greater IC50 value, either a or b as given. Identify your pick by its label.
b
